Data provenance is the Deep4Chem optical property database.

assay.procedure: photoluminescence quantum yield (fraction); solvent given as SMILES
details: in CCOC(C)=O
Label rule, in plain words: photoluminescence quantum yield of 0.6 and up is true (1), under 0.6 is false (0).

Use these answered entries as a reference point.
O=CN1N=C(c2ccc(Br)cc2)C[C@@H]1c1ccccc1	false (0)
CCCCCCCCN1c2ccccc2Sc2cc(/C=C/c3ccc(N(c4ccc(/C=C/c5ccc6c(c5)Sc5ccccc5N6CCCCCCCC)cc4)c4ccc(/C=C/c5ccc(/C=C/c6ccc(N(c7ccc(/C=C/c8ccc9c(c8)Sc8ccccc8N9CCCCCCCC)cc7)c7ccc(/C=C/c8ccc9c(c8)Sc8ccccc8N9CCCCCCCC)cc7)cc6)c6nsnc56)cc4)cc3)ccc21	false (0)
Nc1ccc2c(c1)C(=O)N(C13C[C@H]4C[C@@H](C1)C[C@@H](C3)C4)C2=O	false (0)
CCn1c2ccccc2c2cc(-c3cc(-c4ccc5c(c4)c4ccccc4n5CC)nc(N4CCCCC4)n3)ccc21	false (0)

Incoming: Is photoluminescence quantum yield for CC1=CC(C)=[N+]2C1=Cc1c3ccccc3c(C#Cc3cccs3)n1[B-]2(F)F at or above 0.6?
Outgoing: false (0)

Incoming: Is photoluminescence quantum yield for CCOC(=O)CN(CC(=O)OCC)c1ccc(-c2cc(-c3cccnc3)nc(-c3cccnc3)c2)cc1 at or above 0.6?
Outgoing: true (1)

Incoming: Is photoluminescence quantum yield for CCCCCCOc1ccc(C#Cc2ccc(-c3ccc(-c4ccc(C#Cc5ccc(OCCCCCC)c(OCCCCCC)c5)s4)c4nsnc34)s2)cc1OCCCCCC at or above 0.6?
Outgoing: false (0)

Incoming: Is photoluminescence quantum yield for COC(=O)C(Cc1ccc2oc(-c3ccc(N(C)C)cc3)nc2c1)NC(=O)OC(C)(C)C (centres undefined) at or above 0.6?
Outgoing: true (1)

Incoming: Is photoluminescence quantum yield for CN(C)c1ccc(C2=Cc3c4ccccc4c4ccccc4[n+]3[B-](F)(F)O2)cc1 at or above 0.6?
Outgoing: true (1)

Incoming: Is photoluminescence quantum yield for Cc1ccccc1C1=C2C=c3c(oc4ccccc34)=[N+]2[B-](F)(F)n2c1cc1c3ccccc3oc12 at or above 0.6?
Outgoing: true (1)
